Read-out: Monocyte Chemoattractant Protein-1 (MCP1), CCL2 (gene 6347)
Test: BSK_4H_MCP1: BioMAP Diversity Plus: 4H Assay for Monocyte Chemoattractant Protein-1 (MCP1) Biomarker Activity (AID 2283018)
Conditions: primary human endothelial cells (HUVEC); actives raise or lower the signal
Procedure: BSK_4H is a cell-based, multiplexed-readout assay that uses umbilical vein endothelium, a human vascular primary cell, with measurements taken at 24 hours after chemical dosing in a 96-well plate.BSK_4H_MCP1 is an assay component measured in the BSK_4H assay. It measures MCP-1 antibody related to regulation of gene expression using ELISA technology.Data from the assay component BSK_4H_MCP1 was analyzed into 1 assay endpoint. […]
Activity calls are given as the source filed them. Rule for the calls: active = hit-call score of the fitted dose curve at least 0.9, where 1 is the maximum; inactive = score below 0.9.
Outcomes: class 1 for active, class 0 for inactive

INSERT INTO measurements (compound, group) VALUES
  ('CCCCOC(=O)c1ccc(O)cc1', 'class 0'),
  ('CN(C)c1ccc(C(=C2C=CC(=[N+](C)C)C=C2)c2ccc(N(C)C)cc2)cc1', 'class 1'),
  ('CC(O)CC(C)(C)O (configuration not stated)', 'class 0'),
  ('Cc1ccc(C(C)C)cc1', 'class 0'),
  ('O=C=NCCCCCCN=C=O', 'class 0'),
  ('O=C1O[C@H]([C@@H](O)CO)C(O)=C1O', 'class 0'),
  ('Cc1ncc(CO)c(CO)c1O', 'class 0'),
  ('CC1=CC(=O)/C(=C(/C)O)C(=O)O1', 'class 0'),
  ('CC(C)(C)c1csc(-c2cc3cc(OCc4ccccc4CC(=O)O)ccc3o2)n1', 'class 1'),
  ('Cc1ccc2oc(CN(Cc3ccccc3)C(=O)Nc3c(F)cc(F)cc3F)c(-c3ccc(Cl)cc3)c2c1', 'class 0'),
  ('O=C(O)c1ccccc1-n1cc(C(=O)O)c(=O)c2cc(Nc3c(F)cc(F)cc3Cl)c(Cl)cc21', 'class 0'),
  ('O=c1c(-c2ccc(O)cc2)coc2cc(O)cc(O)c12', 'class 1');
